Source: the supplement of paper PMC10567573

Can you tell me protein stability index for the items I'm about to list?
procedure-text: protein stability index of a GFP-peptide fusion (GPS, HEK-293T) (PSI 1-6); higher = more stable;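 further: 24-mer peptide tiles fused after GFP, lentivirally expressed, FACS-sorted into six equal bins by GFP/DsRed ratio, decoded by Illumina sequencing, PSI is the read-weighted mean bin number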
test-settings: treatment: MLN4924 1 uM, 8 h; c terminus: a fixed tail appended
Write the number on its own, no unit after it.

Task: Entry CGSKACRRLFGPVDSEQLRRDCDA [CDKN1A] has what protein stability index?
Output: 3.23

Task: Next: KASALNTKIRALQGSLENMSKLLK [CD207]
Output: 2.26

Task: Same question for GGRKGTAIELQGHNDRVQALSYAQ [WDFY2] please.
Output: 4.38

Task: Record: PAGAEYCSSARHPAWGHCFYRLYQ [SCNN1D]
Output: 2.68

Task: // repeat for EQIHLLLSSQCFSNISRPRDNPMC [M1AP] and report
Output: 2.33

Task: Input SNRGAYVKLGPALTPHIVQYQANK [PPEF2]
Output: 2.99

Task: Proceed to PKEPAPPNGSAAEPPTEAASREEN [PALM]
Output: 5.37

Task: And for LPSERWNPTQNVRTILLSVISLLN [CDC34] ?
Output: 3.58

Task: For PPTPGRPSLGPALSTGPRGLCAMP [VENTX] then?
Output: 3.73

Task: Okay, and SAAQTDPTTGYRRLLRFSSQIHNN [LOXL2] ?
Output: 3.23

Task: Next entry: YLAMLERFQDGDNILEKEVLPPIH [FEM1B]
Output: 2.93

Task: Same question for FMRTDNTCVNLLLEASNYQMMPYM [KLHL13] please.
Output: 2.24

Task: What do you get for KRKLGLTALVGLRQNLSKSWLDVQ [TPD52L3] ?
Output: 2.16

Task: Please give the result for RAQLHVQGLLHEAGSTDDRIVVPQ [SPNS1] too.
Output: 4.23

Task: Further, for HYMEENLMDGGDLPSVTDIRRPRL [PLK2] ?
Output: 4.22

Task: Next: DLSVEERSFVEKHRWPSNMYLKQL [RHOBTB3]
Output: 2.98

Task: Next: RQMAFDFARVKKGADGVMRTMAPE [SNAP91]
Output: 3.43

Task: Please give the result for IIQYRLPMKKNNNLYSWDDFMELG [ACSBG2] too.
Output: 1.98

Task: Similarly, PHWLDKWMLTRKQFGLLSFFFAVL [STEAP1] ?
Output: 2.26

Task: Proceed to KDSHDPLPSWAELLRPKYRAPQGC [PBXIP1]
Output: 3.19

Task: Another sequence to look at: VQQQKLAEERRRQNLQEEKERKLE [FAF2]
Output: 5.19

Task: Could you do the same for LPKPPGTPVVTESTATSITLTWDS [PTPRD] , please?
Output: 3.88

Task: Similarly, LSFLDYRDLINCCYVSRRLSQLSS [FBXO3] ?
Output: 2.14

Task: Then what about the sequence MSAQSVEEDSILIIPTPDEEEKIL [ZNF24] ?
Output: 5.23

Task: Next entry: DGLRLLGARARGVAMLGVFLVSAV [SOAT2]
Output: 2.49

Task: Would you kindly repeat that for FFFAVLHAIYSLSYPMRRSYRYKL [STEAP1] ?
Output: 2.43

Task: TDSKELSMAKEVIAKELSKTYQET [ZBED1] , same question.
Output: 4.82

Task: Now give it for AATKQEGMEGLLGTLVQLLGSDDI [CTNNB1] too.
Output: 2.71

Task: Lookup SWTTVTSMTTPRCYVGATVLRGRL [KLHL12]
Output: 2.24

Task: Next record, please: DSEHEPVYRAELVGELNGYLRDSS [PWWP2B]
Output: 4.45

Task: Also LPACTLCAGPLEDAVTIPCGHTFC [TRIM15] , if possible.
Output: 4.16

Task: Next: QSCARAVVPSYIPLVKKHCDDSFT [CPOX]
Output: 2.71

Task: Same thing, different sequence: MERPMSQADLELDYNPPRVQLSDE [CBY2]
Output: 5.22

Task: One more sequence: SLSYTVLIVGRIAIGVSISLSSIA [SLC2A12]
Output: 3.37

Task: Repeat with NKLALQYGCKVADIKKVNNFIREQ [LYSMD4]
Output: 2.38

Task: Please do the same for NSLDTTSWAWRGPGVLKVLWLTAS [LPCAT4] as well.
Output: 2.25

Task: What would you report for LRNTLKSTSEDSLVKQECIKEVVE [FAN1] ?
Output: 5.01
